assay target: SARS-CoV-2 Spike (SARS-CoV-2), P0DTC2
assay notes: SARS-CoV-2 Spike:ACE2 inhibitor screening kit (Example 4); Table 7 prints 38.6
measured metric: IC50 (nM)

[[record]]
binder = "KTFLDKFNHEAEDLFPGPKWSAFLKEQSTLAQMYG (modifications not checked) [Seq28 (LNCOV-20)]"
unit_abbrev = "nM"
numeric_result = 38.5


# credit: patent US20230304010A1
